Target: HLA-B*07:02
Experiment: IEDB peptide-MHC binding, purified MHC/direct/fluorescence; filed as Kd, often an IC50 or EC50 that approximates it; bounds were set here for any values at or beyond the usual limits of such assays
Details: source organism: Yersinia pestis
pKd: −log10 of the molar value.
# pKd per record follows

Here's what some known entries look like.
[[record]]
input_sequence = "MQLQLNCAY"
assayed_target = "HLA-B*07:02"
result = "≤ 5.00"

[[record]]
input_sequence = "LPLEFWQAW"
assayed_target = "HLA-B*07:02"
result = 6.63

[[record]]
input_sequence = "RQLESRLGY"
assayed_target = "HLA-B*07:02"
result = "≤ 4.70"


Now for another entry.
Entry AMQDPNPEV needs its pKd filled in; supply it.
≤ 4.70
